- System: SNB-19
- experimental-protocol: Cytotoxicity against human SNB19 cells assessed as reduction in cell viability incubated for 24 hrs by MTT assay
- Type: cell-based
- setup-conditions: snb-19, 24 h
reported-metric: CC50 (µM)
Give the value, in units of µM, as a plain number.

> print(dat)
                                chem.smiles  reported.metric  output.unit  value
1  C=C1CC[C@@H]2[C@](C)(CO)[C@H](O)CC[C@@]2(C)[C@@H]1C/C=C1/C(=O)OC[C@H]1Oc1ccnc2ccccc12             CC50           µM   60.1
2  C=C1CC[C@@H]2[C@]3(C)COC(C)(C)O[C@@H]3CC[C@@]2(C)[C@@H]1C/C=C1/C(=O)OC[C@@H]1Oc1cccc2cccnc12             CC50           µM   21.1
3  C=C1CC[C@@H]2[C@]3(C)COC(C)(C)O[C@@H]3CC[C@@]2(C)[C@@H]1C/C=C1/C(=O)OC[C@H]1Oc1cccc2ccc(C)nc12             CC50           µM   66.5
4  C=C1CC[C@@H]2[C@](C)(CO)[C@H](O)CC[C@@]2(C)[C@@H]1C/C=C1/C(=O)OC[C@@H]1Oc1cccc2cccnc12             CC50           µM   22.7

Kindly review the next compound as well.
Q: Recall the reported CC50 of C=C1CC[C@H]2[C@@](C)(CCC(=O)[C@@]2(C)COC(C)=O)[C@@H]1C/C=C1/C(=O)OC[C@@H]1Oc1c(Cl)cc(Cl)c2cccnc12 on SNB-19 and write it down.
Ans: 72

* * *

CC50 at 48 h for assorted compounds
- experimental-protocol: Cytotoxicity against African green monkey Vero cells assessed as reduction in cell viability incubated for 48 hrs by MTT assay
- Assay type: cell-based
- setup-conditions: chlorocebus sabaeus, Vero cells
Give the value, in units of µM, as a plain number.

Examples with answers:
> print(dat)
                                chem.smiles  output.unit  value
1  C=C1CC[C@H]2[C@@](C)(CCC(=O)[C@@]2(C)COC(C)=O)[C@@H]1C/C=C1/C(=O)OC[C@@H]1Oc1cccc2ccc(C)nc12           µM   46.7
2  C=C1CC[C@@H]2[C@]3(C)COC(C)(C)O[C@@H]3CC[C@@]2(C)[C@@H]1C/C=C1/C(=O)OC[C@@H]1Oc1c(Cl)cc(Cl)c2cccnc12           µM   55.9
3  C=C1CC[C@@H]2[C@](C)(COC(C)=O)[C@H](O)CC[C@@]2(C)[C@@H]1C/C=C1/C(=O)OC[C@H]1Oc1cccc2ccc(C)nc12           µM   50.6

Kindly review the next compound as well.
Q: Look up and state reported CC50 at 48 h for C=C1CC[C@@H]2[C@](C)(COC(C)=O)[C@H](O)CC[C@@]2(C)[C@@H]1C/C=C1/C(=O)OC[C@@H]1Oc1c(Cl)cc(Cl)c2cccnc12
Ans: 51.9
